# System: SW-620 colon
# protocol-description: NCI tumour cell line growth inhibition, 48 h; in the data active means GI50 below about 0.43 µM; inactive means the rest
Labels: active, inactive

[
  {
    "compound": "Nc1ncnc2c1ncn2C1OC(F)(COS(N)(=O)=O)C(O)C1O (stereo not drawn)",
    "system-name": "SW-620 colon",
    "label-class": "inactive"
  },
  {
    "compound": "Cc1ccc(-c2csc3ncnc(Nc4cccc(O)c4)c23)cc1",
    "system-name": "SW-620 colon",
    "label-class": "inactive"
  },
  {
    "compound": "O=NN(CC(=O)NNc1ccccc1)CC(=O)NNc1ccccc1",
    "system-name": "SW-620 colon",
    "label-class": "inactive"
  },
  {
    "compound": "O=C1CC[C@@H]2[C@H]3CCC(=O)c4c3c(c3cccc(O)c3c4O)O[C@@]23C(=O)c2cccc(O)c2C(O)=C13",
    "system-name": "SW-620 colon",
    "label-class": "inactive"
  },
  {
    "compound": "O=C(N/N=C/c1coc2ccc(Cl)cc2c1=O)c1cc(O)c(O)c(O)c1",
    "system-name": "SW-620 colon",
    "label-class": "inactive"
  },
  {
    "compound": "O=C1/C(=C/c2ccc([N+](=O)[O-])s2)Oc2ccc(Br)cc21",
    "system-name": "SW-620 colon",
    "label-class": "active"
  },
  {
    "compound": "C=CCC(NCc1ccccc1)c1cn(C(=O)OCC)c2ccccc12 (stereo not drawn)",
    "system-name": "SW-620 colon",
    "label-class": "inactive"
  },
  {
    "compound": "N#C/C(=C\\c1ccccn1)c1nc2ccccc2o1",
    "system-name": "SW-620 colon",
    "label-class": "inactive"
  },
  {
    "compound": "O=C(Nc1cccc2[nH]c(C(F)(F)F)nc12)c1ccc(Br)cc1F",
    "system-name": "SW-620 colon",
    "label-class": "inactive"
  },
  {
    "compound": "CC[C@@]1(O)C(=O)OCc2c1cc1n(c2=O)Cc2cc3c(N)c(OC)ccc3nc2-1",
    "system-name": "SW-620 colon",
    "label-class": "active"
  },
  {
    "compound": "C[C@H]1CCC/C=C/[C@@H]2C[C@H](O)C[C@H]2[C@H](O)C(O)C(O)C(=O)O1 (stereo partly drawn)",
    "system-name": "SW-620 colon",
    "label-class": "inactive"
  },
  {
    "compound": "Nc1ncnc2occ(-c3ccc(NC(=O)Nc4cccc(C(F)(F)F)c4)cc3)c12",
    "system-name": "SW-620 colon",
    "label-class": "inactive"
  },
  {
    "compound": "COC(=O)c1cc2c3cc(Cl)ccc3[nH]c2c2ncccc12",
    "system-name": "SW-620 colon",
    "label-class": "inactive"
  }
]

====

# Tested on: SF-539 CNS
# protocol-description: NCI tumour cell line growth inhibition, 48 h
Listing of recorded TGI by entry.
result-type: TGI

[
  {
    "molecule": "COc1ccc2c(c1)C1Oc3ccccc3CC1CO2 (configuration not stated)",
    "reported-value": "> 100 µM"
  },
  {
    "molecule": "CC(=O)/C=C1/C(=O)C(CC(C)C)=C1CC(C)C",
    "reported-value": "> 100 µM"
  },
  {
    "molecule": "COc1cccc(C2c3cc4c(cc3OC(N3CCCC3)C2c2ccccc2)OCO4)c1O (configuration not stated)",
    "reported-value": "21.7 µM"
  },
  {
    "molecule": "CN(COC(=O)C(C)(C)C)c1nc(N(C)COC(=O)C(C)(C)C)nc(N(C)COC(=O)C(C)(C)C)n1",
    "reported-value": "> 100 µM"
  },
  {
    "molecule": "CCCCCCCCCCCCNCCCc1ccccc1",
    "reported-value": "3.32 µM"
  },
  {
    "molecule": "N#Cc1ccc(N=NN2CCCC2)cc1",
    "reported-value": "> 100 µM"
  },
  {
    "molecule": "Nc1nc(N)c2ncn(Cc3ccccc3CO)c2n1",
    "reported-value": "> 100 µM"
  },
  {
    "molecule": "Nc1ncnc2occ(-c3ccc(NC(=O)Nc4cccc(C(F)(F)F)c4)cc3)c12",
    "reported-value": "7.1 µM"
  },
  {
    "molecule": "CSc1cc(Cl)c(C(=O)Nc2ccccc2)cc1S(=O)(=O)n1cc[nH]c1=O",
    "reported-value": "> 100 µM"
  },
  {
    "molecule": "N#Cc1ccccc1NC(=O)C(O)C(O)C(O)C(O)C=O (configuration not stated)",
    "reported-value": "> 100 µM"
  },
  {
    "molecule": "COc1ccccc1NC(=S)Nc1ccccn1",
    "reported-value": "> 100 µM"
  },
  {
    "molecule": "COc1cc(C(C)c2cc3c(cc2OCCCCCOc2cc4c(cc2C(C)c2cc(OC)c(OC)c(OC)c2)OCO4)OCO3)cc(OC)c1OC (configuration not stated)",
    "reported-value": "> 100 µM"
  },
  {
    "molecule": "CC[C@@]1(O)C(=O)OCc2c1cc1n(c2=O)Cc2cc3c(N)c(OC)ccc3nc2-1",
    "reported-value": "0.0932 µM"
  },
  {
    "molecule": "NC(=O)c1c(NC(=O)c2ccc(C(F)(F)F)cc2Cl)sc2c1CCC(=O)C2",
    "reported-value": "1.04 µM"
  },
  {
    "molecule": "O=c1c2cc([N+](=O)[O-])ccc2[nH]n1Cc1ccccc1Cl",
    "reported-value": "> 100 µM"
  },
  {
    "molecule": "ON[C@@H]1C=C[C@H](n2cnc3c(NC4CC4)ncnc32)C1",
    "reported-value": "> 100 µM"
  },
  {
    "molecule": "COc1ccc(/C(=N/O)c2cc(F)c(F)c(OC)c2F)cc1O",
    "reported-value": "5.27 µM"
  },
  {
    "molecule": "COc1cccc(/C=N/[N+](C)(C)C)c1O",
    "reported-value": "> 10 µM"
  },
  {
    "molecule": "O=[N+]([O-])c1cc2c(ccc3ccccc32)o1",
    "reported-value": "2.97 µM"
  },
  {
    "molecule": "O=C1CC[C@@H]2[C@H]3CCC(=O)c4c3c(c3cccc(O)c3c4O)O[C@@]23C(=O)c2cccc(O)c2C(O)=C13",
    "reported-value": "> 100 µM"
  },
  {
    "molecule": "CCCCCCCCC#CCCCCCCC(F)C(=O)O (configuration not stated)",
    "reported-value": "> 100 µM"
  },
  {
    "molecule": "CCN1C(c2ccccc2)=CC(c2ccccc2)(C(Cl)(Cl)Cl)C=C1c1ccccc1",
    "reported-value": "37 µM"
  }
]
